assay: physchem
conditionsUsed: methanol, organic solvent or mixture

{"columns": ["smi", "solubility"],
 "data": [
  ["N[C@@H](Cc1ccccc1)C(=O)O", "< 50 mM"]
]}

* * *

assay: Coformer and CSP-1103 aqueous solubility assessment (qualitative)
Type: physicochemical
conditionsUsed: water, thermodynamic from solid, 0.05 M aqueous concentration, gentle heating at 45° C. for 1 minute

{"columns": ["molecule", "solubility"],
 "data": [
  ["O=C(O)C1(c2ccc(-c3ccc(Cl)c(Cl)c3)c(F)c2)CC1", "< 50 mM"],
  ["N[C@@H](Cc1ccccc1)C(=O)O", "> 50 mM"],
  ["O=C1NS(=O)(=O)c2ccccc21", "< 50 mM"],
  ["O=C(O)/C=C/c1ccc(O)c(O)c1", "< 50 mM"],
  ["NC(=O)c1cccnc1 [nicotinamide]", "> 50 mM"],
  ["COc1cc(C=O)ccc1O", "> 50 mM"]
]}

* * *

assay: Solubility assessment of CSP-1103 in organic solvents (qualitative)
Assay type: physicochemical
conditionsUsed: acetonitrile, organic solvent or mixture, thermodynamic from solid, qualitative solubility at 0.05 M; gentle heating if required
observationType: solubility

{"columns": ["smi", "observationType", "recordedResult"],
 "data": [
  ["O=C(O)C1(c2ccc(-c3ccc(Cl)c(Cl)c3)c(F)c2)CC1", "solubility", "< 50 mM"]
]}

* * *

assay: Coformer solubility assessment in organic solvents (qualitative)
Type: physicochemical
conditionsUsed: organic solvent or mixture, thermodynamic from solid; MTBE; gentle heating 45° C. if required
# reported solubility; entries follow

{"columns": ["compound", "solubility"],
 "data": [
  ["O=C(O)/C=C/c1ccc(O)c(O)c1 [caffeic acid]", "< 50 mM"],
  ["COc1cc(C=O)ccc1O [vanillin]", "> 200 mM"]
]}

* * *

assay: Solubility assessment of CSP-1103 in organic solvents (qualitative)
Format: physicochemical
conditionsUsed: acetone, organic solvent or mixture, thermodynamic from solid, qualitative solubility at 0.2 M; gentle heating 45° C. 1 minute if required

{"columns": ["smi", "solubility"],
 "data": [
  ["O=C(O)C1(c2ccc(-c3ccc(Cl)c(Cl)c3)c(F)c2)CC1", "< 200 mM"]
]}

* * *

assay: physchem
conditionsUsed: acetone, organic solvent or mixture

{"columns": ["smi", "solubility"],
 "data": [
  ["N[C@@H](Cc1ccccc1)C(=O)O", "< 50 mM"]
]}

* * *

assay: Consolidated qualitative solubility results (Tables 6 and 8)
conditionsUsed: acetone (BP 56° C.); Table 8; numbers are molar concentrations pending investigation
observationType: qualitative solvent solubility overlaid with cocrystallization screens' results

{"columns": ["smi", "recordedResult"],
 "data": [
  ["O=C(O)/C=C/c1ccc(O)c(O)c1", "✓"],
  ["COc1cc(C=O)ccc1O", "✓"],
  ["O=C1NS(=O)(=O)c2ccccc21", "✓"],
  ["O=C(O)C1(c2ccc(-c3ccc(Cl)c(Cl)c3)c(F)c2)CC1", "50 mM"]
]}

* * *

assay: Solubility assessment of CSP-1103 in organic solvents (qualitative)
Format: physicochemical
conditionsUsed: MTBE, organic solvent or mixture, thermodynamic from solid, qualitative solubility at 0.1 M; gentle heating if required
observationType: solubility

{"columns": ["smi", "observationType", "recordedResult"],
 "data": [
  ["O=C(O)C1(c2ccc(-c3ccc(Cl)c(Cl)c3)c(F)c2)CC1", "solubility", "> 100 mM"]
]}

* * *

In this section we review reported solubility values for a set of molecules.
assay: Coformer solubility assessment in organic solvents (qualitative)
Assay type: physicochemical
conditionsUsed: organic solvent or mixture, thermodynamic from solid; ethanol; gentle heating 45° C. if required

{"columns": ["molecule", "solubility"],
 "data": [
  ["COc1cc(C=O)ccc1O [vanillin]", "> 200 mM"],
  ["O=C(O)/C=C/c1ccc(O)c(O)c1 [caffeic acid]", "> 200 mM"],
  ["NC(=O)c1cccnc1 [nicotinamide]", "> 200 mM"],
  ["O=C1NS(=O)(=O)c2ccccc21 [saccharin]", "> 100 mM"]
]}

Data provenance is patent US20250161290A1.
